Listed here are sequences together with their documented protein stability index.
System: Saccharomyces cerevisiae;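 also: PSI is a weighted mean of sequencing reads over stability bins, variants kept only with over 10 reads, mCherry proximal and sfGFP distal, peptide attached via GGGS linker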
experimental-details: protein stability index of tFT-peptide fusion (C-terminal peptide) (PSI (0-1 scale)); higher = more stable (slower turnover)
setup-conditions: genetic background: cdc34-1; temperature: 37 C
Please reply with the number alone, leaving off any unit.

Known protein stability index results, listed for orientation:
- seq-text: "WLTCSLVFNVFW"
  protein stability index: 0.429
- seq-text: "GGGWCVWMVWFG"
  protein stability index: 0.482
- seq-text: "QCSVRLKEIQFS"
  protein stability index: 0.664
- seq-text: "YVFSPLSCWASV"
  protein stability index: 0.692
- seq-text: "MQFVALFLVGLL"
  protein stability index: 0.465

## Input // fetch Saccharomyces cerevisiae protein stability index for `FCTVYFVCVWEM`
## Output 0.196

## Input // fetch Saccharomyces cerevisiae protein stability index for `YCLSCLAKASLM`
## Output 0.495

## Input // fetch Saccharomyces cerevisiae protein stability index for `LLLRQVFSLGVF`
## Output 0.549

## Input // fetch Saccharomyces cerevisiae protein stability index for `YLGSLQVPVHLF`
## Output 0.676

## Input // fetch Saccharomyces cerevisiae protein stability index for `CICAFCSLNLLC`
## Output 0.695

## Input // fetch Saccharomyces cerevisiae protein stability index for `VHTAIFTSWRRL`
## Output 0.696

## Input // fetch Saccharomyces cerevisiae protein stability index for `MRGPAWVCVLYS`
## Output 0.637

## Input // fetch Saccharomyces cerevisiae protein stability index for `PALPTPPVSPSP`
## Output 0.613

## Input // fetch Saccharomyces cerevisiae protein stability index for `LMWVFPRVVWLY`
## Output 0.123

## Input // fetch Saccharomyces cerevisiae protein stability index for `WFFRLFFLFFSG`
## Output 0.34

## Input // fetch Saccharomyces cerevisiae protein stability index for `GSVCVVCWELVV`
## Output 0.488

## Input // fetch Saccharomyces cerevisiae protein stability index for `LRVPCPPCCVFV`
## Output 0.568
